Target: human orexin-2 receptor (Homo sapiens (Human), UniProt O43614)
Sequence (O43614 whole entry): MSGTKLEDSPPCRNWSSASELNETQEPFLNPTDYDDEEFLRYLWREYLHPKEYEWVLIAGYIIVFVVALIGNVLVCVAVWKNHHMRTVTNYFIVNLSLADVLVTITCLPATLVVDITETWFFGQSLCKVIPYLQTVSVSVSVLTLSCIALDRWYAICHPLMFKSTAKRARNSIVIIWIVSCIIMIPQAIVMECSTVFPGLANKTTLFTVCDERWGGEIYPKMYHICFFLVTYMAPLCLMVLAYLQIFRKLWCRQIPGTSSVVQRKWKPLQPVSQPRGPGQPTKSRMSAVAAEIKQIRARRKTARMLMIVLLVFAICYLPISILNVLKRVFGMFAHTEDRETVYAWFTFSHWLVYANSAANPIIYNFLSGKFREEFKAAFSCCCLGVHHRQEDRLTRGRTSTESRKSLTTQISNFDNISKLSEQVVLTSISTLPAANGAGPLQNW
Assay: FLIPR Ca2+ Flux Assay, orexin-2 receptor
Conditions: CHO cells expressing the human orexin-2 receptor; agonist 70 pM Ala-6,12 orexin-A; read-out: hOX2R FLIPR IC50
Exercise: state measured IC50 for each of the compounds provided.
Just the number please, in nM, no unit attached.

Need IC50 of CCN(CCN(C)c1nc(C)cc(C)n1)C(=O)c1ccccc1OCC(F)(F)F [Example B-17] , thanks. 11.2

Need IC50 of CCN(CCN(C)c1cc(C#N)ccn1)C(=O)c1ccccc1C1(C#N)CCOCC1 [Example F-10] , thanks. 7200

Need IC50 of CCOc1ncccc1C(=O)N(CC)CCN(C)c1nccc(C(C)(C)O)n1 [Example H-15] , thanks. 77.3

Need IC50 of CCN(CCN(C)c1cccc(C(C)(C)O)n1)C(=O)c1cccnc1CC(F)(F)F [Example I-19] , thanks. 2270

Need IC50 of CCOc1nc2cccc(C(=O)N(CC)CCN(C)c3cc(C#N)ccn3)c2[nH]1 [Example F-19] , thanks. 10000

Need IC50 of CCN(CCN(C)c1cc(C#N)ccn1)C(=O)c1ccccc1-n1cnnn1 [Example F-25] , thanks. 4390

Need IC50 of CCN(CCN(C)c1cc(C#N)ccn1)C(=O)c1ccccc1-c1nnn[nH]1 [Example F-5] , thanks. 10000

Need IC50 of CCN(CCN(C)c1nccc(C(C)(C)O)n1)C(=O)c1ccccc1CC(F)F [Example H-24] , thanks. 20.6

Need IC50 of CCN(CCN(C)c1nccc(C(C)(C)O)n1)C(=O)c1cccnc1OCC(F)F [Example H-16] , thanks. 24.2

Need IC50 of CCN(CCN(C)c1cccc(C(C)(C)O)n1)C(=O)c1ccccc1-n1ncnn1 [Example I-23] , thanks. 69.6

Need IC50 of CCN(CCN(C)c1nc(C)cc(C)n1)C(=O)c1ccccc1-n1cccn1 [Example B-14] , thanks. 13.9

Need IC50 of CCN(CCN(C)c1nc(C)cc(C)n1)C(=O)c1ccccc1C1CCC1 [Example B-26] , thanks. 20.4

Need IC50 of CCN(CCN(C)c1nc(C)cc(C)n1)C(=O)c1cccnc1OCC(F)F [Example B-10] , thanks. 40.6

Need IC50 of CCN(CCN(C)c1nc(C)cc(C)n1)C(=O)c1ncccc1-c1ccccc1 [Example B-27] , thanks. 12.5

Need IC50 of CCN(CCN(C)c1nc(C)cc(C)n1)C(=O)c1ccccc1OC(F)(F)F [Example B-7] , thanks. 9.4

Need IC50 of CCN(CCN(C)c1cc(C#N)ccn1)C(=O)c1cccnc1OCc1ccccc1 [Example F-6] , thanks. 97.9

Need IC50 of CCN(CCN(C)c1cccc(C(C)(C)O)n1)C(=O)c1ccccc1C1CC1(F)F (stereo not drawn) [Example I-20] , thanks. 36.4

Need IC50 of CCN(CCN(C)c1nccc(C#N)c1C)C(=O)c1ccccc1-n1nccn1 [Example E-7] , thanks. 198

Need IC50 of CCN(CCN(C)c1cc(C#N)ccn1)C(=O)c1ccccc1-c1nc(C)no1 [Example F-27] , thanks. 24

Need IC50 of CCN(CCN(C)c1nccc(C(C)(C)O)n1)C(=O)c1ccccc1CC(F)(F)F [Example H-21] , thanks. 18

Need IC50 of CCN(CCN(C)c1cccc(C(C)(C)O)n1)C(=O)c1cccnc1OCC(F)(F)F [Example I-15] , thanks. 306

Entry source: patent US10011595B2
